Hello, the source for this data is ChEMBL document CHEMBL1158787, in case you need it.

Provide the recorded MIC for the entries that follow.
tested on: Enterococcus faecium; test: Antimicrobial activity against vancomycin resistant Enterococcus faecium; assay type: functional
Answer with a number only, understood to be in µg/mL.

State the recorded MIC for this entry: C=C1CC[C@H](Cl)C(C)(C)[C@@H]1C[C@@]12OC(C)(C)[C@H](Cl)C[C@]1(Cl)C(=O)c1c(cc(O)c(C)c1O)C2=O
3.9

Same question, Cc1c(O)cc2c(c1O)C(=O)[C@H]1C[C@@H](Cl)C(C)(C)O[C@@]1(C[C@H]1C(C)(C)[C@@H](Cl)CC[C@]1(C)O)C2=O this time
3.9

Now consider C=C1CC[C@H](Cl)C(C)(C)[C@@H]1C[C@@]12OC(C)(C)[C@H](Cl)C=C1C(=O)c1c(cc(O)c(C)c1O)C2=O .
1.95

And for Cc1c(O)cc2c(c1O)C(=O)C1=C[C@@H](Cl)C(C)(C)O[C@@]1(C[C@H]1C(C)(C)[C@@H](Cl)CC[C@]1(C)O)C2=O ?
15.6
